Biological target: MAGE-A11:PCF11 interaction (GST-MAGE-A11 and FAM-PCF11_4) (Homo sapiens, UniProt P43364)
Construct: GST-MAGE-A11 MHD (human MAGE-A11 MHD amino acid 218-429); made in house; host or cells: E. coli BL21(DE3)
Sequence (P43364 218-429): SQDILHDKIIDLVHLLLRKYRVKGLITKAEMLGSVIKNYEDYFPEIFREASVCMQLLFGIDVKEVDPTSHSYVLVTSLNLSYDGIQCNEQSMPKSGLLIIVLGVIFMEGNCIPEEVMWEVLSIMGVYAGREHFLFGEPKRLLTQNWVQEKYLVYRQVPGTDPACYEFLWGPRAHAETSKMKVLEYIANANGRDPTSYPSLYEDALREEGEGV
Assay: TR-FRET primary / single point screen at 15 µM
Assay type: binding
Conditions: single point TR-FRET screening of 797 quinoline compounds against MAGE-A11:PCF11
MEASURED_PARAMETER: percent inhibition (TR-FRET)
Reply briefly: the number, and no unit.

// sample CCCNCCCNc1c2ccc(Cl)cc2nc2ccc(OC)cc12 [SJ000361096] , its percent inhibition (TR-FRET) was -498.476

// sample COc1ccc2nc3cc(Cl)ccc3c(NCCCNCCCSC)c2c1 [SJ000523025] , its percent inhibition (TR-FRET) was -336.863

// sample CCC(C)CN1CCC(Nc2ccnc3cc(Cl)ccc23)CC1 (stereo not drawn) [SJ000523105] , its percent inhibition (TR-FRET) was 11.185

// sample Clc1ccc2c(NCCCCN(CCc3ccccc3)Cc3ccccc3)ccnc2c1 [SJ000361211] , its percent inhibition (TR-FRET) was 23.3769

// sample CCCN(CCC)CCCNc1c2ccc(Cl)cc2nc2ccc(OC)cc12 [SJ000520917] , its percent inhibition (TR-FRET) was -288.202

// sample CCCN(CCCNc1c2ccc(Cl)cc2nc2ccc(OC)cc12)CC1CC1 [SJ000520936] , its percent inhibition (TR-FRET) was -271.356

// sample COc1ccc(N2CCN(c3c(S(=O)(=O)c4ccccc4)cnc4ccc(C)cc34)CC2)cc1 [SJ000083981] , its percent inhibition (TR-FRET) was -37.966

// sample COc1ccc2nc3cc(Cl)ccc3c(NCCCNCc3ccccn3)c2c1 [SJ000523024] , its percent inhibition (TR-FRET) was -255.258

// sample CCCN(CCCNc1c2ccc(Cl)cc2nc2ccc(OC)cc12)Cc1ccc(OC)c(F)c1 [SJ000522963] , its percent inhibition (TR-FRET) was -177.507

----------
Target: MAGE-A11:PCF11 interaction (GST-MAGE-A11 MHD and FAM-PCF11_4) (Homo sapiens, UniProt P43364)
Construct: GST-MAGE-A11 MHD (human MAGE-A11 MHD amino acid 218-429); made in house; host or cells: E. coli BL21(DE3)
Experiment: TR-FRET dose response test of compounds for disruption of MAGE-A11:PCF11 binding
Details: Supplementary Data 3, 59 quinoline compounds; read-out: TR-FRET IC50
MEASURED_PARAMETER: IC50

// sample CCCN(CCCNc1ccnc2cc(Cl)ccc12)Cc1ccc2ccccc2c1 [SJ000523040-1] , its IC50 was > 70 µM

// sample c1ccc(Cc2ccc3c(NCCCNCc4ccco4)ccnc3c2)cc1 [SJ000311306-2, C(CNCc1occc1)CNc2ccnc3cc(Cc4ccccc4)ccc23] , its IC50 was 32.2 µM

// sample Cc1ccc(C)c(CN(CCCCNc2ccnc3cc(Cl)ccc23)Cc2ccccc2)c1 [SJ000361209-2] , its IC50 was > 70 µM

// sample Clc1ccc2c(NCCCN(Cc3ccccc3)Cc3c[nH]c4ccccc34)ccnc2c1 [SJ000520433-1] , its IC50 was > 70 µM

// sample c1coc(CNCCCNc2ccnc3cc(CC4CCCCC4)ccc23)c1 [SJ000311250-1, C(CNCc1occc1)CNc2ccnc3cc(CC4CCCCC4)ccc23] , its IC50 was 54.9 µM

// sample CCCN(CCCNc1ccnc2cc(C(F)(F)F)ccc12)CCC(C)(C)C [SJ000520476-1] , its IC50 was > 70 µM

// sample COC(=O)CCCCCNCCCNc1ccnc2cc(Cl)ccc12 [SJ000521021-1] , its IC50 was 31.4 µM

// sample CCCN(CCCNc1c2ccc(Cl)cc2nc2ccc(OC)cc12)Cc1ccc2[nH]ccc2c1 [SJ000522732-2] , its IC50 was > 70 µM
